Recorded values, source PubChem BioAssay (NCI).

- Tested on: KM12 colon
- ASSAY SUMMARY: NCI tumour cell line growth inhibition, 48 h
MEASUREMENT KIND: TGI

INSERT INTO assay_data (molecule, result) VALUES
  ('O=c1[nH]nc(-c2ccccc2)n1/N=C\c1ccccc1', '> 100 µM'),
  ('C[N+](C)(C)c1ccc(C(N)C(=O)O)cc1 (stereo unspecified)', '> 100 µM'),
  ('O=C1C(c2ccccc2)=C(O)c2cccc3cccc1c23', '> 100 µM'),
  ('Cc1cc(-c2nc3cc(F)ccc3s2)ccc1NC(=O)[C@@H](N)CCCCN', '3.36 µM'),
  ('CC(C)(C)C(=O)OCC1C(=O)OCC1C(=O)N1Cc2cc3ccccc3nc2C1 (stereo unspecified)', '29.8 µM');

Prompt: Could you share which TGI value was measured for `COc1ccc2c(c1)c(CC(=O)[Se]C)c(C)n2C(=O)c1ccc(Cl)cc1` ?
Response: > 1 µM

###

- System: KM12 colon
- ASSAY SUMMARY: NCI tumour cell line growth inhibition, 48 h
MEASUREMENT KIND: TGI

Prompt: Short answer please: TGI, KM12 colon, entry COc1cccc(N2C(=O)C3c4[nH]c5ccccc5c4C4CCCC4C3C2=O)c1 (stereo not given)
Response: > 10 µM

Prompt: Please do the same for `O=C(O)CC[C@H](NC(=O)c1ccc(-n2nc3ccc(O)cc3nc2=O)cc1)C(=O)O` as well.
Response: > 100 µM

Prompt: Please do the same for `C=C[C@@H](C)[C@H](NS(=O)(=O)c1ccc(C)cc1)C(=O)OCC` as well.
Response: > 100 µM

Prompt: Please do the same for `O=C(Nc1cccc(-n2cc(-c3ccncc3)c(-c3ccc(Cl)c(O)c3)n2)c1)Nc1cc(C(F)(F)F)cc(C(F)(F)F)c1` as well.
Response: 1.35 µM

Prompt: Please do the same for Cc1ccccc1OCC(O)CN1CCN(c2ccc(Cl)cc2)CC1 (stereo not given) as well.
Response: 36.9 µM

###

- System: 786-0 renal
- ASSAY SUMMARY: NCI tumour cell line growth inhibition, 48 h
MEASUREMENT KIND: TGI

INSERT INTO results (compound, result) VALUES
  ('CCOC(=O)c1nc2ccc(C(F)(F)F)cc2nc1Oc1cc(OC)c(OC)c(OC)c1', '> 100 µM'),
  ('CCOC(C[C@H](O[Si](C)(C)C(C)(C)C)[C@H]1COC(=S)S1)OCC', '> 100 µM'),
  ('C=C/C(C)=C\CC1[C@](C)(O)CC[C@H]2C(C)(C)C(=O)CC[C@]12C (stereo not given in full)', '> 100 µM'),
  ('CN(C(=O)C12C3C4C1C1C2C3C41C(N)=O)C(C)(C)C (stereo not given)', '> 100 µM'),
  ('CN(C)c1nc(N)nc(CS)n1', '> 100 µM');

Prompt: Could you share which TGI value was measured for `CC(=O)[CH-]C(=O)c1ccccc1.CC(=O)[CH-]C(=O)c1ccccc1.CC[O-].CC[O-].[Hf+4]` ?
Response: > 100 µM

Prompt: Please do the same for `CC(=O)N1CC(C)(C)c2c(C)c(O)c(C)c(C)c21` as well.
Response: > 100 µM

Prompt: Please do the same for `CCNC(=S)N=Nc1c(O)[nH]c2ccc([N+](=O)[O-])cc12` as well.
Response: 69 µM

Prompt: Please do the same for `Cc1ccc2c(=O)cc(-c3ccc(Cl)s3)[nH]c2n1` as well.
Response: > 80.4 µM

Prompt: Please do the same for `CN1CCN(C(=O)C(C)(C)c2ccc(C(=O)Nc3cn4cc(-c5ccncc5)ccc4n3)cc2)CC1` as well.
Response: > 100 µM
